Overview of recorded Post-emerge Herbicidal Activity CASOB for various molecules
Test system: sicklepod (Cassia obtusifolia, CASOB)
Assay: Post-emerge test, greenhouse herbicide activity screening
Format: in vivo
Conditions: 63 g ai/ha; phytotoxicity rating 0-100 (0 no damage, 100 complete death), 14 days after application
No unit in the answer, only the number.

Sample answers from the record:
In [3]: df
Out[3]:
                                   molecule                      quantity_measured  observed_value
0  COc1c(Cl)cc(F)c(-n2c(=O)cc(C(F)(F)F)n(C)c2=O)c1N=CN(C)C  Post-emerge Herbicidal Activity CASOB               0
1  CCc1ccc(C(=O)Nc2c(OC)c(Cl)cc(F)c2-n2c(=O)cc(C(F)(F)F)n(C)c2=O)cc1  Post-emerge Herbicidal Activity CASOB              50
2  COc1c(Cl)cc(F)c(-n2c(=O)c(N)c(C(F)(F)F)n(C)c2=O)c1N  Post-emerge Herbicidal Activity CASOB               0
3  Cn1c(C(F)(F)F)cc(=O)n(-c2c(F)cc(Cl)c(OC3CCCC3)c2N)c1=O  Post-emerge Herbicidal Activity CASOB              10
4  C=CC(=O)N(C(=O)C=C)c1c(OC)c(Cl)cc(F)c1-n1c(=O)cc(C(F)(F)F)n(C)c1=O  Post-emerge Herbicidal Activity CASOB               0

For CCOc1c(Cl)cc(F)c(-n2c(=O)cc(C(F)(F)F)n(C)c2=O)c1N , what is its reported Post-emerge Herbicidal Activity CASOB?
60

Could you share which Post-emerge Herbicidal Activity CASOB value was measured for Cc1c(Cl)cc(F)c(-n2c(=O)cc(C(F)(F)F)n(C)c2=O)c1N ?
65

Which Post-emerge Herbicidal Activity CASOB reading was recorded for the molecule CCOC(=O)C(C)Oc1c(Cl)cc(F)c(-n2c(=O)cc(C(F)(F)F)n(C)c2=O)c1N (stereo not shown) ?
50

GET /values?readout=Post-emerge Herbicidal Activity CASOB&item= C#CCOc1c(Cl)cc(F)c(-n2c(=O)cc(C(F)(F)F)n(C)c2=O)c1N
10

Given the entry COc1c(Cl)cc(F)c(-n2c(=O)cc(C(F)(F)F)n(C)c2=O)c1NC(=O)c1ccc(C)cc1 , report its measured Post-emerge Herbicidal Activity CASOB.
100

----------
Tested on: johnsongrass (Sorghum halepense, SORHA)
Experiment: Pre-emerge test, greenhouse herbicide activity screening
Assay type: in vivo
Conditions: 63 g ai/ha; rating scale 0-100, 14 days after application
quantity-measured: Pre-emerge herbicidal activity, phytotoxicity rating SORHA
Could you keep your reply to the number by itself?

>>> df
                                   molecule  observed_value
0  C#CCOC(=O)C(C)(Cl)Cc1c(OC)c(Cl)cc(F)c1-n1c(=O)cc(C(F)(F)F)n(C)c1=O (stereo not drawn) [14-44]               0

Which Pre-emerge herbicidal activity, phytotoxicity rating SORHA value is on record for COc1c(Cl)cc(F)c(-n2c(=O)cc(C(F)(F)F)n(C)c2=O)c1CC(Cl)C(=O)OCC(F)(F)C(F)(F)C(F)(F)F (single isomer, unassigned) [14-23] ?
0

So what's the measured Pre-emerge herbicidal activity, phytotoxicity rating SORHA for this one? COc1c(Cl)cc(F)c(-n2c(=O)cc(C(F)(F)F)n(C)c2=O)c1CC(Cl)C(=O)OCCOc1ccccc1 (single isomer, unassigned) [14-28]
0

----------
phytotoxicity rating SETVI for assorted compounds
Tested on: green foxtail (Setaria viridis, SETVI)
Assay: Pre-emerge test, greenhouse herbicide activity screening
Format: in vivo
Settings: pre-emerge, 63 g ai/ha, 14 days after application, scale 0-100
Format: numeric value only, no unit, no commentary.

Here is how some compounds turned out for phytotoxicity rating SETVI.
                                   compound           quantity_measured  observed_value
0  COc1c(Br)cc(F)c(-n2c(=O)cc(C(F)(F)F)n(C)c2=O)c1N(C(=O)C=Cc1ccccc1)C(=O)C=Cc1ccccc1 [2-176]  phytotoxicity rating SETVI               0
1  COc1c(Br)cc(F)c(-n2c(=O)cc(C(F)(F)F)n(C)c2=O)c1N(C(=O)C=Cc1ccccc1)C(=O)C=Cc1ccccc1 [2-178]  phytotoxicity rating SETVI               0
2  COc1c(Cl)cc(F)c(-n2c(=O)cc(C(F)(F)F)n(C)c2=O)c1NC(=O)c1c(C)cccc1C  phytotoxicity rating SETVI               0
3  COc1c(Cl)cc(F)c(-n2c(=O)cc(C(F)(F)F)n(C)c2=O)c1NC(=O)Cc1ccccc1  phytotoxicity rating SETVI               0
4  N#CCOc1c(Cl)cc(F)c(-n2c(=O)cc(C(F)(F)F)n(N)c2=O)c1NC(=O)c1ccc2ccccc2c1  phytotoxicity rating SETVI              30
5  Cc1c(Cl)cc(F)c(-n2c(=O)cc(C(F)(F)F)n(C)c2=O)c1NC(=O)C=Cc1ccccc1  phytotoxicity rating SETVI              80
6  CCOC(=O)CSCC(=O)Nc1c(OC)c(Cl)cc(F)c1-n1c(=O)cc(C(F)(F)F)n(C)c1=O  phytotoxicity rating SETVI              60
7  COc1c(Cl)cc(F)c(-n2c(=O)cc(C(F)(F)F)n(C)c2=O)c1NC(=O)c1cc2ccccc2cc1C  phytotoxicity rating SETVI              60
8  COc1c(Cl)cc(F)c(-n2c(=O)cc(C(F)(F)F)n(C)c2=O)c1NC(=O)COc1ccc(F)cc1  phytotoxicity rating SETVI              95
9  CCSCC(=O)Nc1c(OC)c(Cl)cc(F)c1-n1c(=O)cc(C(F)(F)F)n(C)c1=O  phytotoxicity rating SETVI              20

Consider now this further compound.
Report phytotoxicity rating SETVI for COc1c(Br)cc(F)c(-n2c(=O)cc(C(F)(F)F)n(C)c2=O)c1NC(=O)C=Cc1ccccc1 tested on green foxtail (Setaria viridis, SETVI).
0

----------
System: green foxtail (Setaria viridis, SETVI)
Test: Pre-emerge test, greenhouse herbicide activity screening
Assay type: in vivo
Conditions: 63 g ai/ha; rating scale 0-100, 14 days after application
Param label: returns label 1 when Pre-emerge herbicidal activity, phytotoxicity rating SETVI < 40, returns label 0 otherwise, including exact equality.

>>> print(df.to_string())
                                   compound  label_value
0  C#CCOC(=O)C(Cl)Cc1c(OC)c(Cl)cc(F)c1-n1c(=O)cc(C(F)(F)F)n(C)c1=O (single isomer, unassigned) [14-19]      label 1
1  C=COC(=O)C(C)(Cl)Cc1c(OC)c(Cl)cc(F)c1-n1c(=O)cc(C(F)(F)F)n(C)c1=O (stereo not drawn) [14-42]      label 1

Just wondering, is Pre-emerge herbicidal activity, phytotoxicity rating SETVI of CCCCCOC(=O)C(Cl)Cc1c(OC)c(Cl)cc(F)c1-n1c(=O)cc(C(F)(F)F)n(C)c1=O (single isomer, unassigned) [14-10] below 40?
label 1

Dear colleague, could you confirm whether Pre-emerge herbicidal activity, phytotoxicity rating SETVI of O=C(Nc1cc(Cl)ccc1N1C(=O)C2CCCCN2C1=O)c1ccc2ccccc2c1 (stereo not drawn) [12-8] falls below 40? Thanks.
label 0

Is Pre-emerge herbicidal activity, phytotoxicity rating SETVI strictly under 40 for the entry COCCOC(=O)C(Cl)Cc1c(OC)c(Cl)cc(F)c1-n1c(=O)cc(C(F)(F)F)n(C)c1=O (stereo not drawn) [14-25] ?
label 0

Bench note: check whether O=C(Nc1cc(Cl)ccc1N1C(=O)c2ccccc2C1=O)c1ccc2ccccc2c1 [Compound 13-5] shows Pre-emerge herbicidal activity, phytotoxicity rating SETVI below 40
label 1

Quick check: Pre-emerge herbicidal activity, phytotoxicity rating SETVI of COc1c(Cl)cc(F)c(-n2c(=O)cc(C(F)(F)F)n(C)c2=O)c1CC(C)(Cl)C(=O)OCc1ccccc1 (stereo not drawn) [14-41] under 40?
label 1

Quick check: does COCCOC(=O)C(C)(Cl)Cc1c(OC)c(Cl)cc(F)c1-n1c(=O)cc(C(F)(F)F)n(C)c1=O (stereo not drawn) [14-47] have Pre-emerge herbicidal activity, phytotoxicity rating SETVI under 40?
label 1

----------
Tested on: ivyleaf morningglory (Ipomoea hederacea, IPOHE)
Assay: Post-emerge test, greenhouse herbicide activity screening
Format: in vivo
Settings: 63 g ai/ha; post-emerge; 14 days after application; rating scale 0-100
Output yes (1) for records whose Post-emerge Herbicidal Activity IPOHE (phytotoxicity rating) is lower than 70, no (0) for records at or above 70.

# count of solved cases: 5
                                   molecule  label_value
0  COc1c(Cl)cc(F)c(-n2c(=O)cc(C(F)(F)F)n(C)c2=O)c1Sc1ccc2ccccc2c1 [17-4]      yes (1)
1  COc1c(Cl)cc(F)c(-n2c(=O)cc(C(F)(F)F)n(C)c2=O)c1NN=CCc1ccccc1 [15-15]       no (0)
2  CCOc1c(Cl)cc(F)c(-n2c(=O)cc(C(F)(F)F)n(C)c2=O)c1Cl [14-62]      yes (1)
3  COc1c(Cl)cc(F)c(-n2c(=O)cc(C(F)(F)F)n(C)c2=O)c1SC(C)C [17-2]      yes (1)
4  CCOC(=O)C(Cl)Cc1cc(Cl)cc(F)c1-n1c(=O)cc(C(F)(F)F)n(C)c1=O (stereo not drawn) [14-60]       no (0)

State whether 70 exceeds Post-emerge Herbicidal Activity IPOHE (phytotoxicity rating) recorded for COc1c(Cl)cc(F)c(-n2c(=O)cc(C(F)(F)F)n(C)c2=O)c1NNC(=O)Oc1ccccc1 [15-7] .
no (0)
